# assaySummary: NCI Yeast Anticancer Drug Screen. Data for the cln2 rad14 strain (AID 165)
# protocolConditions: S. cerevisiae cln2 rad14 strain, at 50.0 µM
Compounds without any hit were thinned out: in the full panel of roughly 79,000, 15% have a hit. Active and inactive are the calls of the source. Cut-off read from the data, not from the text of the source: active = growth inhibition above about 70%; inactive = the rest.
Possible outcomes: True (active), False (inactive)

compound	classAssignment
CSc1nc2nn(Cc3ccccc3)cc2c(=O)[nH]1	False
O=C(/C=C/c1ccccc1)CCN1CCN(CCC(=O)/C=C/c2ccccc2)CC1	True
O=[N+]([O-])c1ccc(N/N=C/c2cccnc2)cc1	False
O=C(Nc1nc2ccc([N+](=O)[O-])cc2s1)C(=O)C(C1OC(=O)c2ccccc21)[N+](=O)[O-] (stereo not drawn)	False
COc1ccc(/C=C/C(=N/NC(=O)c2ccccc2)C(C)CN(C)C)cc1 (stereo not drawn)	False
c1ccc(Nc2cccc3ccccc23)cc1	True
Fc1ccc2[nH]ccc2c1	False
O=C1/C(=C/c2ccc(Cl)c(Cl)c2)CN(C(=O)CCN2CCOCC2)C/C1=C\c1ccc(Cl)c(Cl)c1	True
CCC(=O)OC1=C(Cl)C(=O)c2ccccc2C1=O	False
[N-]=[N+]=NCC(O)c1ccc2c(c1)[nH]c1ccccc12 (stereo not drawn)	True
Nc1cc2c(nc3c4ccccc4c(N)cc3[n+]2-c2cccc3ccccc23)c2ccccc12 (tested in a mixture with another compound)	True
COC1C(N)C(OC2C(Oc3cccc4c(O)c5c(=O)oc6ccc(C)c7c(=O)oc(c34)c5c67)OC(C)C(O)C2(C)O)OC(C)C1O (stereo not drawn)	False
CN(C)C(=S)SC1(CN2CCOCC2)COc2c(Cl)cc(Cl)cc2C1=O (stereo not drawn)	True
NC(=S)N1N=C2c3ccccc3CC[C@H]2[C@@H]1c1cccs1	False
Cc1cn(C2OC(CO)C(O)C(O)C2N)c(=O)[nH]c1=O (stereo not drawn)	False
O=c1[nH]c2cc(Cl)ccc2nc1/C=C(\O)c1ccccn1	False
CCCCCCCC(=O)/C=C/c1ccc(C)cc1	False
c1ccc(Cn2nnnc2-c2ccccc2)cc1	True
Nc1ccccc1N=Cc1ccccc1O	False
Cc1ccc(C)c([N+](=O)[O-])c1	False
CC(C)C[NH-].CC(C)C[NH-].[Cl][Pt+2]([Cl])([Cl])[Cl]	True
N#CC1=CN(Cc2ccccc2)C(C#Cc2ccccc2)C=C1 (stereo not drawn)	False
COc1ccc(/C=C2\CCC/C(=C\c3ccc(OC)cc3)C2=O)cc1	False
CCCNC(=O)C(=O)NNc1ccccc1	True
COc1cccc(/C=N/N(C)C)c1O	False
COc1ccc(CN2CCCN(Cc3ccc(OC)cc3OC)C2c2cccc([N+](=O)[O-])c2O)c(OC)c1	False
COc1ccc2c3c(c4cc(OC)c(OC)cc4c2c1)CN1CCC[C@H]1[C@@H]3O	True
C=C1C(=O)OC2CC(C)C3C=CC(=O)C3CC12 (stereo not drawn)	True
CN1C=Cc2ccccc2C1C(C1c2ccccc2C=CN1C)[N+](=O)[O-] (stereo not drawn)	False
O=C(c1ccc([N+](=O)[O-])cc1)C(Br)C(Br)c1ccnc2ccccc12 (stereo not drawn)	True
CN(C)C[N+](C)(C)Cc1ccc(C[N+](C)(C)C[N+](C)(C)Cc2ccc(CCl)cc2)cc1	False
COC(=O)CCC(NC(=S)N/N=C(\C)c1cnc2ccccc2n1)C(=O)OC (stereo not drawn)	False
CCOC(=O)c1[nH]c(Br)c(-c2ccc(OC)c(OC)c2)c1Br	True
N#Cc1ccc([N+](=O)[O-])cc1C#N	True
Cc1c(N)nc(C(CC(N)=O)NCC(N)C(N)=O)nc1C(=O)NC(C(=O)NC(C)C(O)C(C)C(=O)NC(C(=O)NCCc1nc(-c2nc(C(=O)NCCCNC(C)c3ccccc3)cs2)cs1)C(C)O)C(OC1OC(CO)C(O)C(O)C1OC1OC(CO)C(O)C(OC(N)=O)C1O)c1cnc[nH]1 (stereo not drawn)	True
COc1ccc(/C(C#N)=C/c2ccncc2)cc1	False
COc1cc2c(cc1OC)-c1nc(Nc3ccccc3)sc1CC2	False
Fc1cccc2c1cc1ccc3cccc4ccc2c1c34	False
Oc1c(Cl)ccc2cccnc12	True
ClCc1nc2ccccc2c2ccccc12	False
CCN(CC)c1c(C(=O)/C=C/c2ccc(OC)cc2)c(-c2ccccc2)nn(C)c1=O	True
O=C1C=CC2C(=O)c3ccccc3C(=O)C2=C1 (stereo not drawn)	False
C/C(=N\NC(N)=S)C(CN1CCCCC1)C(C1=C(O)c2ccccc2OC1)c1ccccc1 (stereo not drawn)	False
